- assay-text: FIG. 10A
- measurement-context: mouse, in vivo, iv, 10 mg/kg
Where no end group is shown, it is not given here.
property-name: C0 (ng/mL)
Give just the number in ng/mL; leave the unit off.

Q: Supply C0 value. Item: KKYKNIVLLKGLEVINDYHFGRKKRRQRRRPQ-NH2 [Agent 2]
Ans: 3910

---

- assay-text: FIG. 10B
- measurement-context: rat, in vivo, iv, 10 mg/kg
- Protocol: Table printed on a drawing sheet, FIG. 10B The patent's description of the figure: FIGS. 10A-10C. Pharmacokinetic profile and parameter for peptides after intravenous administration. FIG. 10A) Mouse PK data (10 mg/kg, bolus IV, n=3 per timepoint). FIG. 10B) Rat PK data (10 mg/kg, bolus IV, n=3 per timepoint). […] First reader's note: Rat PK parameters; the plot legend on the same sheet gives 10 mg/kg (IV) for both agents, and the top-left cell 'PK parameters / rat' spans the first two rows.
Where no end group is shown, it is not given here.
property-name: C0 (ng/mL)
Give just the number in ng/mL; leave the unit off.

Q: Supply C0 value. Item: KKYKNIVLLKGLEVINDYHFGRKKRRQRRRPQ-NH2 [Agent 2]
Ans: 1730

Source of measurements: patent US20240350647A1
